# TARGET: B2 bradykinin receptor (Homo sapiens) (UniProt P30411)
# Sequence (P30411 whole entry): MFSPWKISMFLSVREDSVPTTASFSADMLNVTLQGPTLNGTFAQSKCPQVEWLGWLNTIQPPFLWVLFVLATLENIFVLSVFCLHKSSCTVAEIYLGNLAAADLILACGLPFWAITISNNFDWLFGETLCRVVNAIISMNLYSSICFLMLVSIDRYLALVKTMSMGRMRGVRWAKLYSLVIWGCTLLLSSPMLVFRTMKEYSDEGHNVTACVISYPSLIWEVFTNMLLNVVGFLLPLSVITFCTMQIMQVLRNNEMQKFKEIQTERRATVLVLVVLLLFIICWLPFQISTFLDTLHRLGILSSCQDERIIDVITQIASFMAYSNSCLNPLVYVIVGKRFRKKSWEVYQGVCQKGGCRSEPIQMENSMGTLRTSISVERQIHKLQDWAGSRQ
# METHOD NOTES: Displacement of [3H]bradykinin from bradykinin B2 receptor expressed in baculovirus-infected SF21 cells at 5 ug/mL
READOUT LABEL: inhibition

INSERT INTO assay_data (molecule, readout_label, observed_value) VALUES
  ('NCCc1c(C(CN)c2c[nH]c3cc(Br)ccc23)[nH]c2cc(C(CN)c3c[nH]c4cc(Br)ccc34)c(O)cc12 (stereo in doubt; form 2)', 'inhibition', '93%'),
  ('NCCc1c(C(CN)c2c[nH]c3cc(Br)ccc23)[nH]c2cc(C(CN)c3c[nH]c4cc(Br)ccc34)c(O)cc12 (stereo in doubt; form 1)', 'inhibition', '100%'),
  ('NCCc1c(C(CN)c2c[nH]c3cc(Br)ccc23)[nH]c2ccc(O)cc12 (racemic)', 'inhibition', '63%'),
  ('NCCc1c(C(CN)c2c[nH]c3cc(Br)ccc23)[nH]c2cc(Br)ccc12 (racemic)', 'inhibition', '89%');

* * *

# METHOD NOTES: Antagonist activity at serotonin receptor in guinea pig ileum assessed as inhibition of serotonin-induced contraction
# Assay type: functional, tissue-based
# ASSAY SETUP: Cavia porcellus
pIC50: −log10 of the molar value.
List of pIC50 values.
READOUT LABEL: pIC50

INSERT INTO assay_data (compound, observed_value) VALUES
  ('NCCc1c[nH]c2ccc(O)c(C(CN)c3c[nH]c4cc(Br)ccc34)c12 (racemic)', 4.00),
  ('NCCc1c(C(CN)c2c[nH]c3cc(Br)ccc23)[nH]c2ccc(O)c(C(CN)c3c[nH]c4cc(Br)ccc34)c12 (racemic)', 5.70),
  ('NCCc1c(C(CN)c2c[nH]c3cc(Br)ccc23)[nH]c2cc(Br)ccc12 (racemic)', 5.00),
  ('NCCc1c(C(CN)c2c[nH]c3cc(Br)ccc23)[nH]c2ccc(O)cc12 (racemic)', 4.30);
